# System: SK-MEL-5 melanoma
# Assay Protocol: NCI tumour cell line growth inhibition, 48 h
Below, each entry is listed alongside its reported TGI.

Request: Given the compound CC(C)CC(NP(=O)(O)OC1OC(C)C(O)C(O)C1O)C(=O)NC(Cc1c[nH]c2ccccc12)C(=O)O (stereo not drawn) , write its reported TGI.
Result: > 100 µM

Request: Given the compound Cc1cc(=O)n(-c2c(C)cccc2Cl)c(/C=C(\O)c2ccncc2)n1 , write its reported TGI.
Result: > 100 µM

Request: Given the compound CCCCCCSCC/C(C)=N\OC , write its reported TGI.
Result: > 100 µM
